- Tested on: 282377-053-R-J1-PDC complex spheroids, viability;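 also: spheroids exposed to compounds for 7 days before readout; percent of vehicle DMSO control viability with 100% = untreated-like growth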
- measurementProtocol: Anticancer human tumor 282377-053-R-J1-PDC patient-derived colon adenocarcinoma cell line growth inhibition [GQUAD]
- conditionDescription: second compound 0.316 µM; first compound 3.16 µM; active compounds read low
Give viability, T/C for every item shown.
# number only, unit % dropped from output

[in] Give the observed viability, T/C of COc1cccc2c1C(=O)c1c(O)c3c(c(O)c1C2=O)CC(O)(C(=O)CO)CC3OC1CC(N)C(O)C(C)O1 (stereo not drawn) + Cc1cnc(CNC(=O)c2c(=O)c3ccc(N4CCCN(C)CC4)nc3n3c2sc2ccccc23)cn1 for 282377-053-R-J1-PDC complex spheroids, viability.
[out] 11.9

[in] Give the observed viability, T/C of CC(C)(O)C1CCC(Nc2ccc3ncc(-c4cccc(C(F)(F)F)c4)n3n2)CC1 (stereo not drawn) + Cc1[nH]c2ccc(F)cc2c1-c1nc2c3cccnc3c3ncccc3c2[nH]1 for 282377-053-R-J1-PDC complex spheroids, viability.
[out] 103

[in] Give the observed viability, T/C of O=c1[nH]cc(F)c(=O)[nH]1 + Cc1[nH]c2ccc(F)cc2c1-c1nc2c3cccnc3c3ncccc3c2[nH]1 for 282377-053-R-J1-PDC complex spheroids, viability.
[out] 75.8
